System: Mycobacterium tuberculosis
method-notes: Antimycobacterial activity against Mycobacterium tuberculosis clinical isolate assessed as growth inhibition after 5 days by microplate Alamar blue assay
Type: functional
condition-context: 120 h
Task for the reader: assign each of the following compounds its reported MIC.
Answer in µM, number only, no unit symbol.

[ask] Return value of MIC for input CN1CCC(C(=O)c2cncc(-c3cc(Cl)cc(Cl)c3)c2)C1=O (stereo unspecified) , no commentary.
[reply] 0.0286

[ask] Return value of MIC for input CN1CCC(C(=O)c2cncc(-c3ccc(Cl)cc3Cl)c2)C1=O (stereo unspecified) , no commentary.
[reply] 0.00286

[ask] Return value of MIC for input CN1CCC(C(=O)c2cncc(-c3cc(Cl)ccc3Cl)c2)C1=O (stereo unspecified) , no commentary.
[reply] 0.286

[ask] Return value of MIC for input CN1CCC(C(=O)c2cncc(-c3ccc(Cl)c(Cl)c3)c2)C1=O (stereo unspecified) , no commentary.
[reply] 0.179

[ask] Return value of MIC for input CN1CCC(C(=O)c2cncc(-c3cccc(Cl)c3Cl)c2)C1=O (stereo unspecified) , no commentary.
[reply] 0.0093

[ask] Return value of MIC for input NNC(=O)c1ccncc1 [ISONIAZID] , no commentary.
[reply] 0.00145

* * *

test-target: Neuronal acetylcholine receptor; alpha4/beta2 (Homo sapiens) (UniProt P17787+P43681)
method-notes: Displacement of [3H]cytisine from human recombinant alpha4beta2 nACh receptor expressed in human SH-SY5Y cells at 1 X 10^-8 M to 1 X 10^-7 M
Type: cell-based
Active and inactive are the calls of the source. The rule behind the calls is not given here.
observable: inhibition

Field: example entries. Status: answers known.
[[record]]
compound = "CN1CCC(C(=O)c2cncc(-c3cccc(O)c3)c2)C1=O (stereo not drawn)"
observable = "inhibition"
measured = "inactive"

[[record]]
compound = "COc1ccc(-c2cncc(C(=O)C3CCN(C)C3=O)c2)cc1 (stereo not drawn)"
observable = "inhibition"
measured = "inactive"

[[record]]
compound = "CN1CCC(C(=O)c2cncc(-c3cc(Cl)cc(Cl)c3)c2)C1=O (stereo not drawn)"
observable = "inhibition"
measured = "inactive"

[[record]]
compound = "CC(=O)c1ccc(-c2cncc(C(=O)C3CCN(C)C3=O)c2)s1 (stereo not drawn)"
observable = "inhibition"
measured = "inactive"


[ask] Return value of inhibition for input CN1CCC(C(=O)c2cncc(C3CC3)c2)C1=O (stereo not drawn) , no commentary.
[reply] inactive

[ask] Return value of inhibition for input CN1CCC(C(=O)c2cncc(-c3cccc(C=O)c3)c2)C1=O (stereo not drawn) , no commentary.
[reply] inactive

[ask] Return value of inhibition for input CN1CCC(C(=O)c2cncc(-c3cccc([N+](=O)[O-])c3)c2)C1=O (stereo not drawn) , no commentary.
[reply] inactive

[ask] Return value of inhibition for input CN1CCC(C(=O)c2cncc(-c3ccccc3)c2)C1=O (stereo not drawn) , no commentary.
[reply] < 10%

[ask] Return value of inhibition for input CN1CCC(C(=O)c2cncc(-c3ccc(F)cc3)c2)C1=O (stereo not drawn) , no commentary.
[reply] inactive

[ask] Return value of inhibition for input CC(=O)Oc1ccc(-c2cncc(C(=O)C3CCN(C)C3=O)c2)cc1 (stereo not drawn) , no commentary.
[reply] inactive

* * *

method-notes: Half life in po dosed Wistar rat plasma
observable: half-life (h)
Answer in h, number only, no unit symbol.

[ask] Return value of half-life for input `CN1CCC[C@H]1c1cccnc1` , no commentary.
[reply] 2

* * *

method-notes: Cmax in Wistar rat at 5 mg/kg, po
Type: ADME, organism-based
Parameters: dose 5 mg/kg, route oral
condition-context: in vivo
observable: Cmax (µg/mL)
Answer in µg/mL, number only, no unit symbol.

[ask] Return value of Cmax for input CN1CCC(C(=O)c2cncc(-c3cc(Cl)cc(Cl)c3)c2)C1=O (stereo unspecified) , no commentary.
[reply] 2.86

* * *

test-target: Neuronal acetylcholine receptor; alpha4/beta2 (Homo sapiens) (UniProt P17787+P43681)
method-notes: Displacement of [3H]cytisine from human recombinant alpha4beta2 nACh receptor expressed in human SH-SY5Y cells at 1 X 10^-8 M to 1 X 10^-7 M
Type: cell-based
The source made the active and inactive calls. The rule behind the calls is not given here.
observable: inhibition

[[record]]
compound = "CCCCc1cncc(C(=O)C2CCN(C)C2=O)c1 (stereo not drawn)"
measured = "inactive"

[[record]]
compound = "COc1cccc(-c2cncc(C(=O)C3CCN(C)C3=O)c2)c1 (stereo not drawn)"
measured = "inactive"

[[record]]
compound = "Cc1cccc(-c2cncc(C(=O)C3CCN(C)C3=O)c2)c1 (stereo not drawn)"
measured = "< 10%"

